Target: PecS (VvPecS) (Vibrio vulnificus, UniProt A0A3Q0KXQ7)
Construct: gene VV2_0325; His6-tagged VvPecS (BJE04_RS19600; old locus tag VVA0819), dimer
Sequence (A0A3Q0KXQ7 entry or part of it): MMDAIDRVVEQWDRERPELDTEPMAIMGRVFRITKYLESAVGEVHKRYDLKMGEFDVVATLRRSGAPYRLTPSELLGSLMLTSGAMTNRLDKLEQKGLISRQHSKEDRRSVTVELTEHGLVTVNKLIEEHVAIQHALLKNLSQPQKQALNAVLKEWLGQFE
Assay: EMSA: attenuation of purified VvPecS binding to pecS-pecM intergenic DNA (IC50 […]); supported by SYPRO Orange thermal shift (Tm […] to […] °C)
recordedEndpoint: Ki (µM)
# unit: µM | format: bare number

Prompt line: I have this molecule here, O=c1[nH]c(=O)c2[nH]cnc2[nH]1 [xanthine] , and I need its recorded Ki.
Response line: 60

###

Molecular target: PecS (VvPecS) (Vibrio vulnificus)
Construct: gene VV2_0325; His6-tagged VvPecS (BJE04_RS19600; old locus tag VVA0819), dimer
Assay: EMSA: attenuation of purified VvPecS binding to pecS-pecM intergenic DNA (IC50 […]); supported by SYPRO Orange thermal shift (Tm […] to […] °C)
recordedEndpoint: Ki (µM)
# unit: µM | format: bare number

Prompt line: Find the measured Ki: item O=c1[nH]c(=O)c2[nH]c(=O)[nH]c2[nH]1 [urate] , target or system PecS (VvPecS) (Vibrio vulnificus).
Response line: 226
